Source: patent US20210380703A1

target: T1, biotinylated goat anti-human kappa light chain; experiment: ELISA, positive control; further: test concentration or dose not given here
T1 construct: positive control of the ELISA
Below, each of the binders is paired with its reported optical density value.
Give your result in OD as a bare value.

Sample records with optical density:
{"BINDER": "371_E07 (antibody, V domains shown, Group III) VH: EVQLLESGGGLVQPGGSLRLSCAASGFTFDSYSMNWVRQAPGKGLEWVAGINYNGGYTSYADSVKGRFTISRDNSKNTLYLQMNSLRAEDTAVYYCARGANWHDTALDYWGQGTLVTVSS VL: DIQMTQSPSSLSASVGDRVTITCRASQSIISYLNWYQQKPGKAPKLLIYAATSLASGVPSRFSGSGSGTDFTLTISSLQPEDFATYYCQQSYESPLTFGGGTKVEIK", "optical density / OD": 3.44}
{"BINDER": "370_D05 (antibody, V domains shown, Group III) VH: EVQLLESGGGLVQPGGSLRLSCAASGFTFDDYSMNWVRQAPGKGLEWVSNINYNGGYKGYADSVKGRFTISRDNSKNTLYLQMNSLRAEDTAVYYCARGANWHDTALDYWGQGTLVTVSS VL: DIQMTQSPSSLSASVGDRVTITCRASQSIITYLNWYQQKPGKAPKLVIYAATSRHSGVPSRFSGSGSGTDFTLTISSLQPEDFATYYCQQSYDTPLTFGGGTKVEIK", "optical density / OD": 3.49}

Q: Consider the binder 372_G12 (antibody, V domains shown, Group III) VH: EVQLLESGGGLVQPGGSLRLSCAASGFTFDSYSMNWVRQAPGKGLEWVAGINYNGGYTGYADSVKGRFTISRDNSKNTLYLQMNSLRAEDTAVYYCARGANWHDTHLDYWGQGTLVTVSS VL: DIQMTQSPSSLSASVGDRVTITCRASQSILTYLNWYQQKPGKAPKLVIYAATSRHSGVPSRFSGSGSGTDFTLTISSLQPEDFATYYCQQSYDSPLTFGGGTKVEIK . State its measured optical density.
A: 3.5
